Each record here notes measured chemical recovery into PDMS.
# EXPERIMENT SUMMARY: chemical recovery into PDMS from spiked human plasma; higher = better extraction
# CONDITIONS: pooled human plasma; extraction method: PES with PDMS; equilibration time (d): 1
The reply should be a number in %, with the unit left off.

// known answers, use as guide
[[record]]
compound = "c1ccc(Cc2ccccc2)cc1 [Diphenylmethane]"
unit_name = "%"
measured_result = 33.8

[[record]]
compound = "CCCCOP(=O)(O)OCCCC [Di-n-butyl phosphate]"
unit_name = "%"
measured_result = 25.9

[[record]]
compound = "CC(C)COP(=O)(OCC(C)C)OCC(C)C [Tri-isobutylphosphate]"
unit_name = "%"
measured_result = 37.6

[[record]]
compound = "c1ccc(-c2ccc(C(c3ccccc3)n3ccnc3)cc2)cc1 (stereo unspecified) [Bifonazol]"
unit_name = "%"
measured_result = 38.6


chemical recovery into PDMS measured on Fc1ccc([C@@H]2CCNC[C@H]2COc2ccc3c(c2)OCO3)cc1 [Paroxetine] = 0.404

Item: Nc1ccc(/N=N/c2ccccc2)cc1 [Aniline Yellow] | chemical recovery into PDMS: 12.3

Cc1nc2ccccc2s1 [2-Methylbenzothiazole] has a reported chemical recovery into PDMS of 8.73

Recorded chemical recovery into PDMS (compound CC(C)N(C(=O)COc1nnc(C(F)(F)F)s1)c1ccc(F)cc1 [Flufenacet] ): 50

Sure, the documented chemical recovery into PDMS for CCNc1nc(NC(C)(C)C)nc(SC)n1 [Terbutryn] is 21.7

# chemical recovery into PDMS (compound: CCNc1nc(NCC)nc(SC)n1 [Simetryn] ) is 21.2

// CC12CC3CC(C)(C1)CC(N)(C3)C2 [Memantine] : chemical recovery into PDMS value = 3.61

---

# EXPERIMENT SUMMARY: chemical recovery by SPE of plasma after PDMS sampling; higher = better extraction
# CONDITIONS: pooled human plasma; extraction method: HLB SPE of plasma after PES; equilibration time (d): 3
Reported values of chemical recovery by SPE of plasma for individual entries
Write the figure, then the unit, nothing else.

[[record]]
compound = "O=[N+]([O-])/N=C1\\NCCN1Cc1ccc(Cl)nc1"
quantity_name = "chemical recovery by SPE of plasma"
measured_result = "50.2%"

[[record]]
compound = "N#Cc1cc(Br)c(O)c(Br)c1"
quantity_name = "chemical recovery by SPE of plasma"
measured_result = "62.9%"

[[record]]
compound = "c1ccc2sc(SNC3CCCCC3)nc2c1 [N-Cyclohexyl-2-benzothiazole-sulfenamide]"
quantity_name = "chemical recovery by SPE of plasma"
measured_result = "43.6%"

[[record]]
compound = "O=c1c2ccccc2[nH]c2ccccc12"
quantity_name = "chemical recovery by SPE of plasma"
measured_result = "55.6%"


Input `Clc1cc(-c2cc(Cl)c(Cl)c(Cl)c2Cl)c(Cl)c(Cl)c1Cl` . Output chemical recovery by SPE of plasma: 5.05%

Given item `c1ccc2[nH]nnc2c1` , the value recorded as its chemical recovery by SPE of plasma is 46.6%

---

# EXPERIMENT SUMMARY: chemical recovery into PDMS from spiked human plasma; higher = better extraction
# CONDITIONS: pooled human plasma; extraction method: PES with PDMS; equilibration time (d): 6
Classification field: enter met for chemical recovery into PDMS values not below 8%, not met for values below it.

[[record]]
compound = "COC(=O)N(OC)c1ccccc1COc1ccn(-c2ccc(Cl)cc2)n1"
answer_label = "met"

[[record]]
compound = "CCc1cccc(C)c1N(C(=O)CCl)C(C)COC (stereo not given)"
answer_label = "met"

[[record]]
compound = "CCc1cccc(C)c1N(C(=O)CS(=O)(=O)O)[C@@H](C)C(=O)O"
answer_label = "not met"

[[record]]
compound = "CCOC(=O)NCCOc1ccc(Oc2ccccc2)cc1"
answer_label = "met"

[[record]]
compound = "CNC(=O)CSP(=O)(OC)OC [Omethoate]"
answer_label = "not met"

[[record]]
compound = "Clc1cc(Cl)c(-c2ccc(Cl)c(Cl)c2Cl)cc1Cl"
answer_label = "met"

[[record]]
compound = "Cc1cc(C2CCCCC2)n(O)c(=O)c1"
answer_label = "met"

[[record]]
compound = "Clc1ccc(C(c2ccc(Cl)cc2)C(Cl)Cl)cc1"
answer_label = "not met"

[[record]]
compound = "CCOP(=S)(OCC)SCSP(=S)(OCC)OCC"
answer_label = "met"


Now for another entry.
Reported chemical recovery into PDMS at or above 8%? CCCCCCCCCCCCCC[N+](C)(C)[O-] [N,N-Dimethyltetradecylamine-N-oxide] not met
